Tested on: SKOV3
Test: Primary qHTS to identify gynecologic anti-cancer compounds using libraries of approved drugs and bioactive compounds (AID 1345084); further: on the % scale 0 is the no-effect control and ±100 the full control effect; nearly all actives have a fitted effect of over 55% in size
Settings: Gynecologic cancer cell panel viability, ATPlite luminescence, 48 h; series mostly up to 57.5 µM
From the text: National Center for Advancing Translational Sciences [NCATS] Assay Overview: Chemotherapeutic drug responses vary from cancer to cancer and from patient to patient. […] ATPlite is a luminescence based assay reliant on the conversion of a luciferase substrate to light in the presence of ATP. As a cytotoxic compound will suppress growth and decrease the number of cells, the concentration of ATP will decrease, and less light signal will be detected in the well. […]
Records with an inconclusive call do not appear. Active and inactive are the calls of the source. The call rests on the fitted dose curve; in most records, active means well fitted cell-killing curve with a large enough effect; inconclusive means small, poorly fitted or top-dose-only effect, or effect the other way; inactive means flat fitted curve, though single readings scatter.
observable: activity change, negative = cytotoxicity

Here are 5 molecules together with their reported answers.
1. OC[C@@]1(O)CO[C@H](OC[C@H]2O[C@@H](OC(CCCCc3ccc(O)cc3)CCc3ccc(O)cc3)[C@H](O[C@H]3OC[C@](O)(CO)[C@H]3O)[C@@H](O)[C@@H]2O)[C@@H]1O (some centres not stated) :: inactive
2. C[C@H]1CC[C@@]2(OC1)O[C@H]1CC3C4CC[C@H]5C[C@@H](O[C@@H]6O[C@H](CO)[C@H](O[C@@H]7O[C@H](CO)[C@@H](O)[C@H](O[C@@H]8OC[C@@H](O)[C@H](O)[C@H]8O)[C@H]7O[C@@H]7O[C@H](CO)[C@@H](O)[C@H](O)[C@H]7O)[C@H](O)[C@H]6O)[C@H](O)C[C@]5(C)C4=CC(=O)[C@]3(C)[C@H]1[C@@H]2C (some centres not stated) :: 0.679% [at 11.6 µM] (inactive)
3. COC(=O)C(CC1CCCC1)c1ccc(S(C)(=O)=O)cc1 (configuration not stated) :: inactive
4. CC1=C(C)C(=O)OC(C(C)C2C(O)CC3C4C5OC5C5(O)CC(OC6OC(CO)C(OC7OC(C)C(O)C(O)C7O)C(O)C6O)CC(O)C5(C)C4CCC32C)C1 (configuration not stated) :: inactive
5. CCNC(=O)C1CC(F)(c2ccc(CN3CCCC3)c(F)c2)C1 (configuration not stated) :: inactive

Inquiry: Check the records and state activity change, negative = cytotoxicity for CCc1cccc2c3c([nH]c12)[C@@](CC)(CC(=O)O)OCC3
Reply text: inactive

Inquiry: Using the record for CCOc1nc2c(N)ncnc2n1CC , state its measured activity change, negative = cytotoxicity.
Reply text: inactive

Inquiry: Return activity change, negative = cytotoxicity (reported value) for this molecule: COc1cc(C2Oc3c(OC)cc(/C=C/C(=O)OC4CC(O)(C(=O)O)CC(O)C4O)cc3C2CO)ccc1O (configuration not stated)
Reply text: inactive

Inquiry: Return reported activity change, negative = cytotoxicity. Input molecule: COC(=O)C1=CO[C@@H](O[C@@H]2O[C@H](CO)[C@@H](O)[C@H](O)[C@H]2O)C2C1CC(O)C2C (some centres not stated)
Reply text: inactive

Inquiry: Respond only with activity change, negative = cytotoxicity recorded for CC(C)C[C@H](NC(=O)[C@@H]1O[C@H]1C(=O)O)C(=O)NCCCCN=C(N)N
Reply text: inactive

---

Test: P-glycoprotein substrates identified in KB-8-5-11 adenocarcinoma cell line, qHTS therapeutic library screen (AID 1346987); further: on the % scale 0 is the no-effect control and ±100 the full control effect; nearly all actives have a fitted effect of over 65% in size
Conditions: KB-8-5-11 (P-gp overexpressing) viability, CellTiter-Glo, 72 h; series mostly up to 44.5 µM
Inconclusive results are not listed. Active and inactive are the calls of the source. Calls follow the shape of the dose curve; as a rule, active = well fitted inhibition curve with a large enough effect; inconclusive = small, poorly fitted or top-dose-only effect; inactive = flat fitted curve, though single readings scatter.
observable: activity change, negative = cytotoxicity

1) CC(=O)/C=C/[C@H]1[C@](C)(O)[C@@H](O)[C@H](O)C2C(C)(C)CCC[C@@]21C (stereo partly drawn) :: inactive
2) CC(NC(=O)[C@H](Cc1ccccc1)NC(=O)OCc1ccccc1)C(=O)CF (stereo partly drawn) :: inactive
3) Cc1cc(CNC(=O)c2cc(C(=O)NCc3ccc(F)c(C)c3)ncn2)ccc1F :: inactive

---

Test system: PA-1
Experiment: Primary qHTS to identify gynecologic anti-cancer compounds using libraries of approved drugs and bioactive compounds (AID 1345084); further: on the % scale 0 is the no-effect control and ±100 the full control effect; nearly all actives have a fitted effect of over 55% in size
Details: Gynecologic cancer cell panel viability, ATPlite luminescence, 48 h; series mostly up to 57.5 µM
Inconclusive results are not listed. Calls of active or inactive are those of the source. Calls follow the shape of the dose curve; as a rule, active = well fitted cell-killing curve with a large enough effect; inconclusive = small, poorly fitted or top-dose-only effect, or effect the other way; inactive = flat fitted curve, though single readings scatter.
observable: activity change, negative = cytotoxicity

The cases that follow already have their activity change, negative = cytotoxicity on record.
1. CC1(O)CC(O)C2C(C(=O)O)=COC(OC3OC(CO)C(O)C(O)C3OC(=O)/C=C/c3ccc(O)cc3)C21 (stereo not given) :: inactive
2. CCC(C)/C=C(C)/C=C/C1=CC2=C(Cl)C(=O)C(C)(OC(C)=O)C(=O)C2=CN1C(CCC(=O)O)C(=O)O (stereo not given) :: inactive
3. CC1(C)CC[C@]2(C(=O)O[C@@H]3O[C@H](CO)[C@@H](O)[C@H](O)[C@H]3O)CC[C@]3(C)C(=CCC4[C@@]5(C)CC[C@H](O[C@@H]6O[C@H](C(=O)O)[C@@H](O[C@@H]7O[C@H](CO)[C@@H](O)[C@H](O)[C@H]7O)[C@H](O)[C@H]6O[C@@H]6O[C@H](CO)[C@@H](O)[C@H](O)[C@H]6O)C(C)(C)C5CC[C@]43C)C2C1 (stereo not given in full) :: 18.4% [at 11.6 µM] (inactive)
4. C[C@@H]1O[C@@H](O[C@@H]2[C@@H](O)[C@H](O[C@H]3[C@H](O[C@H]4CC[C@@]5(C)C(CC[C@]6(C)C5CC=C5[C@@H]7CC(C)(C)CC[C@]7(C(=O)O[C@@H]7O[C@H](CO)[C@@H](O)[C@H](O)[C@H]7O)CC[C@]56C)C4(C)C)O[C@H](C(=O)O)[C@@H](O)[C@@H]3O)OC[C@H]2O)[C@H](O)[C@H](O)[C@H]1O (stereo not given in full) :: 4.95% [at 11.6 µM] (inactive)

Now look at this entry.
Inquiry: # return recorded activity change, negative = cytotoxicity for input CC1=CC23[C@H](C=C(C(=O)O)[C@@H]2COC(=O)[C@]3(O)CO)[C@@H]1C (stereo not given in full)
Reply text: inactive

---

Test system: Zika virus NS2B-NS3 protease (unlinked complex)
Assay: Primary screen GU Rhodamine qHTS for Zika virus inhibitors: Unlinked NS2B-NS3 protease assay (AID 1347159); further: nearly all actives have a fitted effect of over 60% in size
Conditions: Recombinant ZIKV NS2B-NS3 protease, Rhodamine110 substrate fluorescence; series mostly up to 107 µM
Results filed as inconclusive are left out. The source made the active and inactive calls. The call rests on the fitted dose curve; in most records, active means well fitted inhibition curve with a large enough effect; inconclusive means small, poorly fitted or top-dose-only effect; inactive means no such curve, though single readings can be large or run the other way. Where a SMILES comes first, the peptide text is derived from it. The star is where a group is joined. Hexanoyl = CCCCCC(=O)*
The reply should be one of these categories: active, inactive

1. CCCCCC(=O)N1CCC[C@H]1C(=O)N[C@@H](Cc1ccc(O)cc1)C(=O)OC (Hexanoyl-Pro-Tyr-OMe) :: inactive

Inquiry: Tell me the recorded outcome of this test for CC/C=C/C(O)C(O)C1=C(C)C(=O)C2(O1)C(=O)NC(OC)(C(=O)c1ccccc1)C2O (stereo unspecified) .
Reply text: inactive

Inquiry: Each molecule tested received a call. Report the one for CC(=O)OC1CCC2(C)C(CCC3(C)C2CC=C2C4CC(C)(C)CCC4(C)CCC23C)C1(C)C(=O)O (stereo unspecified) .
Reply text: active

Inquiry: // return assay outcome for Cc1cc(C(=O)N2Cc3cnn(C)c3Nc3ccccc32)ccc1CNC(=O)N1CCN(Cc2cc(O)cc(O)c2)CC1
Reply text: inactive

Inquiry: Per the records of this test, what outcome belongs to CN(C)CC(c1ccc(O)cc1)C1(O)CCCCC1 (stereo unspecified) ?
Reply text: inactive

Inquiry: Query: recorded result category for COc1ccc(CCc2nc3cc(-c4c(C)noc4C)ccc3n2C[C@H](C)N2CCOCC2)cc1Cl in this test
Reply text: inactive

Inquiry: Given CC1=CCC[C@@H]2[C@](CCc3ccoc3)(C(=O)O)[C@H](C)CC[C@@]12C , state the outcome it received in this test.
Reply text: active

Inquiry: Status in this test for C=CC(C)(O)CC/C=C(\C)C(=O)O[C@@H]1[C@@H](O)[C@H](OC(C)(C=C)CC/C=C(\C)C(=O)O)O[C@H](CO)[C@H]1OC(=O)/C(C)=C/CCC(C)(O)C=C (stereo partly specified) ?
Reply text: inactive

---

System: Tov112D
Assay: Primary qHTS to identify gynecologic anti-cancer compounds using libraries of approved drugs and bioactive compounds (AID 1345084); further: on the % scale 0 is the no-effect control and ±100 the full control effect; nearly all actives have a fitted effect of over 55% in size
Conditions: Gynecologic cancer cell panel viability, ATPlite luminescence, 48 h; series mostly up to 57.5 µM
From the text: National Center for Advancing Translational Sciences [NCATS] Assay Overview: Chemotherapeutic drug responses vary from cancer to cancer and from patient to patient. […] ATPlite is a luminescence based assay reliant on the conversion of a luciferase substrate to light in the presence of ATP. As a cytotoxic compound will suppress growth and decrease the number of cells, the concentration of ATP will decrease, and less light signal will be detected in the well. […]
Records with an inconclusive call do not appear. Activity calls are given as the source filed them. Calls come from the whole dose curve; as a rule, active = well fitted cell-killing curve with a large enough effect; inconclusive = small, poorly fitted or top-dose-only effect, or effect the other way; inactive = flat fitted curve, though single readings scatter.
observable: activity change, negative = cytotoxicity

Record excerpt, results attached:
1) COC(=O)C1=C[C@@H](O)[C@@H](O)[C@H](O[C@@H]2O[C@H](CO)[C@@H](O)[C@H](O)[C@H]2OC(=O)/C=C/c2ccccc2)C1 :: inactive
2) Cc1sc(C)c(C(=O)NC2(c3ccc(C(=O)O)cc3)CC2)c1Cc1ccc(C(F)(F)F)cc1 :: inactive
3) CC(C)CC(=O)OC[C@@]1(O)C[C@@]23CC[C@H]4[C@@](C)(CCC[C@@]4(C)C(=O)O)[C@@H]2CC[C@@H]1C3 :: inactive
4) C[C@@H]1O[C@@H](O[C@H]2[C@H](O[C@H]3[C@H](O[C@H]4CC[C@@]5(C)C(CC[C@]6(C)C5CC=C5[C@@H]7CC(C)(C)C[C@@H](O)[C@]7(C)CC[C@]56C)[C@@]4(C)CO)O[C@H](C(=O)O)[C@@H](O)[C@@H]3O)O[C@H](C(=O)O)[C@H](O)[C@@H]2O)[C@H](O)[C@H](O)[C@H]1O (stereo partly specified) :: 5.35% [at 11.6 µM] (inactive)
5) C/C=C(\C)C(=O)OCC1OC(OC2OC(CO)C(O)C(O)C2O)C(O)C(O)C1O (stereo unspecified) :: inactive

From here, focus on the item given below.
Inquiry: Specify measured activity change, negative = cytotoxicity for CC(=O)OC(C)(C)/C=C/C(=O)[C@](C)(O)C1[C@H](O)C[C@@]2(C)[C@@H]3CC=C4[C@@H](C[C@H](O[C@@H]5O[C@H](CO)[C@@H](O)[C@H](O)[C@H]5O)C(=O)C4(C)C)[C@]3(C)C(=O)C[C@]12C (stereo partly specified) .
Reply text: inactive

Source listed as PubChem BioAssay (NCATS).
